Recorded values, source patent US11578055B2.

Assay: In Vitro Microsome Stability Assay (monkey)
Format: in vitro ADME
Details: monkey liver microsomes, 30 min w/ NADPH
measured_endpoint: Liver Microsome Stability-% Left after 30 min w/ NADPH (%) Monkey

>>> measured("COc1cc(F)cc(N2[C@H](C)CN(S(=O)(=O)N3CCCN(CC4CCCCC4)CCCN(S(=O)(=O)c4ccc(N(C)C)cc4)C[C@H](C)C3)C[C@@H]2C)c1")
92.8
>>> measured("C[C@H]1CN(S(=O)(=O)c2ccc(N(C)C)cc2)CCCN(CC2CCCCC2)CCCN(S(=O)(=O)N2CCc3c(C#N)cccc3C2)C1")
3.98
>>> measured("C[C@H]1CN(S(=O)(=O)c2ccc(N(C)C)cc2)CCCCN(S(=O)(=O)N2CCc3cc(Cl)ccc3C2)C1")
0.03
>>> measured("C[C@H]1CN(S(=O)(=O)c2ccc(N(C)C)cc2)CCCN([C@@H](C)c2ccccc2)CCCN(S(=O)(=O)N2CCc3ccccc3C2)C1")
31.7

###

Assay: In Vitro Microsome Stability Assay (rat)
Assay type: in vitro ADME
Conditions: rat liver microsomes, 30 min w/ NADPH
Measured Liver Microsome Stability-% Left after 30 min w/ NADPH (%) Rat values are reported for all entries that follow.
measured_endpoint: Liver Microsome Stability-% Left after 30 min w/ NADPH (%) Rat

>>> measured("C[C@H]1CCN(S(=O)(=O)N2CCc3cc(Cl)ccc3C2)CCCN(CC2CCCCC2)CCCN1S(=O)(=O)c1ccc(N(C)C)cc1")
2.02
>>> measured("C[C@H]1CN(S(=O)(=O)c2ccc(N(C)C)cc2)CCCN(CC2CCCCC2)CCCN(S(=O)(=O)N2CCN(C(=O)c3ccccc3)CC2)C1")
2.18
>>> measured("C[C@H]1CN(S(=O)(=O)c2ccc(N(C)C)cc2)CCCN(CCC2CC2)CCCN(S(=O)(=O)N2CCc3cc(Cl)ccc3C2)C1")
0.17
>>> measured("Cc1ccc(CN2CCCN(S(=O)(=O)c3ccc(N(C)C)cc3)C[C@H](C)CN(S(=O)(=O)N3CCc4cc(Cl)ccc4C3)CCC2)cc1")
73.9
>>> measured("C[C@H]1CN(S(=O)(=O)c2ccc(N(C)C)cc2)CCCN(CC2CCC(F)CC2)CCCN(S(=O)(=O)N2CCc3cc(Cl)ccc3C2)C1 (some centres unmarked)")
58.3
>>> measured("C[C@H]1CN(S(=O)(=O)c2ccc(N(C)C)cc2)CCCN(CCC2CCCCC2)CCCN(S(=O)(=O)N2CCc3cc(Cl)ccc3C2)C1")
41.3
>>> measured("CN(C)c1ccc(S(=O)(=O)NCCCN(CCCNS(=O)(=O)N2CCC(c3ccccc3)CC2)CC2CCCCC2)cc1")
0.58
>>> measured("COc1cc(F)ccc1N1CCN(S(=O)(=O)N2CCCN(CC3CCCCC3)CCCN(S(=O)(=O)c3ccc(N(C)C)cc3)CC3(CC3)C2)CC1")
11.3
>>> measured("C[C@H]1CN(S(=O)(=O)c2ccc(N(C)C)cc2)CCCN(CC2=CCCCC2)CCCN(S(=O)(=O)N2CCc3cc(Cl)ccc3C2)C1")
56.3
>>> measured("C[C@H]1CN(S(=O)(=O)c2cccc(N(C)C)c2)CCCN(CC2CCCCC2)CCCN(S(=O)(=O)N2CCc3cc(Cl)ccc3C2)C1")
42.1
>>> measured("COc1ccc([C@@H]2CCCN(S(=O)(=O)N3CCCN(CC4CCCCC4)CCCN(S(=O)(=O)c4ccc(N(C)C)cc4)C[C@H](C)C3)C2)cc1")
68.9
>>> measured("CCC(C)CN1CCCN(S(=O)(=O)c2ccc(N(C)C)cc2)C[C@H](C)CN(S(=O)(=O)N2CCc3cc(Cl)ccc3C2)CCC1 (some centres unmarked)")
18.9
>>> measured("CC1c2ccccc2CCN1S(=O)(=O)N1CCCN(CC2CCCCC2)CCCN(S(=O)(=O)c2ccc(N(C)C)cc2)C[C@H](C)C1 (some centres unmarked)")
10.8
>>> measured("CC(C)CN1CCCN(S(=O)(=O)c2ccc(N(C)C)cc2)C[C@H](C)CN(S(=O)(=O)N2CCc3cc(Cl)ccc3C2)CCC1")
3.6
>>> measured("CC[C@H]1CN(S(=O)(=O)c2ccc(N(C)C)cc2)CCCN(CC2CCCCC2)CCCN(S(=O)(=O)N2CCc3cc(Cl)ccc3C2)C1")
41.9
>>> measured("C[C@H]1CN(S(=O)(=O)c2ccc(N(C)C)cc2)CCCN(Cc2ncco2)CCCN(S(=O)(=O)N2CCc3cc(Cl)ccc3C2)C1")
0.37
>>> measured("CC1Cc2ccccc2CN1S(=O)(=O)N1CCCN(CC2CCCCC2)CCCN(S(=O)(=O)c2ccc(N(C)C)cc2)C[C@H](C)C1 (some centres unmarked)")
2.23
>>> measured("CN(C)c1ccc(S(=O)(=O)N2CCCN(CC3CCCCC3)CCCN(S(=O)(=O)N3CCC(c4ccccc4)CC3)CC(=O)C2)cc1")
11.1
>>> measured("C=C1CN(S(=O)(=O)c2ccc(N(C)C)cc2)C(C)CCN(CC2CCCCC2)CCCN(S(=O)(=O)N2CCC(c3ccccc3)CC2)C1 (centres unmarked)")
15.7
>>> measured("C[C@H]1CN(S(=O)(=O)c2ccc(N(C)C)cc2)CCCN(CC2CCC2)CCCN(S(=O)(=O)N2CCc3cc(Cl)ccc3C2)C1")
2.05
>>> measured("COc1ccccc1[C@@H]1CCCN(S(=O)(=O)N2CCCN(CC3CCCCC3)CCCN(S(=O)(=O)c3ccc(N(C)C)cc3)C[C@H](C)C2)C1")
54.6
>>> measured("C=C1CN(S(=O)(=O)c2ccc(C)cc2)CCCN(CC2CCCCC2)CC(C)CN(S(=O)(=O)c2ccc(C)cc2)C1 (centres unmarked)")
1.46
>>> measured("C[C@H]1CN(S(=O)(=O)c2ccc(N(C)C)cc2)CCCN(CC2=CCCC2)CCCN(S(=O)(=O)N2CCc3cc(Cl)ccc3C2)C1")
22.6

###

Assay: In Vitro Microsome Stability Assay (mouse)
Type: in vitro ADME
Conditions: mouse, 30 min, NADPH
Measured Liver Microsome Stability-% Left after 30 min w/ NADPH (%) Mouse values are reported for all entries that follow.
measured_endpoint: Liver Microsome Stability-% Left after 30 min w/ NADPH (%) Mouse

>>> measured("C=C1CN(S(=O)(=O)c2ccc(N(C)C)cc2)CCCN(CC2CCCCC2)CCCN(S(=O)(=O)N2CCc3ccccc3C2)C1")
"70.1%"
>>> measured("C=C1CN(S(=O)(=O)c2ccc(N(C)C)cc2)CCCN(CC2CCCCC2)CCCN(S(=O)(=O)N2CCC[C@@H](c3ccccc3)C2)C1")
"20.1%"
>>> measured("C=C1CN(S(=O)(=O)c2c(F)cc(N(C)C)cc2F)CCCN(CC2CCCCC2)CCCN(S(=O)(=O)N2CCC(c3ccccc3)CC2)C1")
"34.1%"
>>> measured("C=C1CN(S(=O)(=O)c2ccc(N(C)C)cc2)CCCN(CC2CCCCC2)CCCN(S(=O)(=O)N2CCC(C3CCCC3)CC2)C1")
"53.1%"
>>> measured("C=C1CN(S(=O)(=O)c2ccc(N(C)C)cc2)CCCN(CC2CCCCC2)CCCN(S(=O)(=O)N2CCc3cc(Cl)ccc3C2)C1")
"39.2%"
>>> measured("CN(C)c1ccc(S(=O)(=O)N2CCCN(CC3CCCCC3)CCCN(S(=O)(=O)N3CCCCC3)CC3(CC3)C2)c(F)c1")
"0.19%"
>>> measured("C=C1CN(S(=O)(=O)c2ccc(C)cc2)CCCN(CC2CCCCC2)CCCN(S(=O)(=O)C2CCCCC2)C1 [A8]")
"0.17%"

###

Experiment: In Vitro Microsome Stability Assay (rat)
Format: in vitro ADME
Settings: rat liver microsomes, 30 min w/ NADPH
Structures can show the parent of a compound that is named as a salt.
Measured Liver Microsome Stability-% Left after 30 min w/ NADPH (%) Rat values are reported for all entries that follow.
measured_endpoint: Liver Microsome Stability-% Left after 30 min w/ NADPH (%) Rat

>>> measured("C[C@H]1CN(S(=O)(=O)c2ccc(N(C)C)cc2)CCCN(Cc2ccon2)CCCN(S(=O)(=O)N2CCc3cc(Cl)ccc3C2)C1 [A124]")
1.25
>>> measured("C[C@H]1CN(S(=O)(=O)c2ccc(N(C)C)cc2)CCCN([C@@H](C)c2ccccc2)CCCN(S(=O)(=O)N2CCc3ccccc3C2)C1 [A205]")
38.7
>>> measured("C[C@H]1CN(S(=O)(=O)c2ccc(N(C)C)cc2)CCCN(CC2CCCCC2)CCCN(S(=O)(=O)N2CCN(c3ccc(F)cc3Cl)CC2)C1 [A206]")
80.5
>>> measured("C[C@H]1CN(S(=O)(=O)c2ccc(N(C)C)cc2)CCCN([C@H](C)C2CCCCC2)CCCN(S(=O)(=O)N2CCc3cc(Cl)ccc3C2)C1 [A191]")
65.0
>>> measured("Cc1cc(F)ccc1N1CC2(C1)CN(S(=O)(=O)N1CCCN(CC3CCCCC3)CCCN(S(=O)(=O)c3ccc(N(C)C)cc3)C[C@H](C)C1)C2 [A161]")
27.3
>>> measured("C[C@@H]1CN(S(=O)(=O)NCc2ccccc2)CCCN(CC2CCCCC2)CCCN(S(=O)(=O)c2ccc(N(C)C)cc2)C1 [A187]")
0.07
>>> measured("C[C@H]1CN(S(=O)(=O)c2ccc(N(C)C)cc2)CCCN(CC2CCCCC2)CCCN(S(=O)(=O)N2CCN(c3ccccc3Cl)CC2)C1 [A198]")
61.4
>>> measured("CN(C)c1ccc(S(=O)(=O)N2C/C=C/CN(S(=O)(=O)N3CCC(c4ccccc4)CC3)CCCN(CC3CCCCC3)CCC2)cc1 [B9]")
3.74
>>> measured("C[C@H]1CN(S(=O)(=O)c2ccc(N(C)C)cc2)CCCN(CCC2CCCC2)CCCN(S(=O)(=O)N2CCc3cc(Cl)ccc3C2)C1 [A120]")
28.5
>>> measured("C=C1CN(S(=O)(=O)c2ccc(C)cc2)CCCN(CC2CCCCC2)CCC(C)N(S(=O)(=O)c2ccc(C)cc2)C1 (stereo not shown) [B1, hydrochloride]")
0.01
>>> measured("CC(C)N1CCCN(S(=O)(=O)c2ccc(N(C)C)cc2)C[C@H](C)CN(S(=O)(=O)N2CCc3cc(Cl)ccc3C2)CCC1 [A141]")
1.14
>>> measured("C[C@H]1CCN(S(=O)(=O)c2ccc(N(C)C)cc2)CCCN(CC2CCCCC2)CCCN1S(=O)(=O)N1CCc2cc(Cl)ccc2C1 [A147]")
1.16
>>> measured("CN(C)c1ccc(S(=O)(=O)N2CCCN(CC3CCCCC3)CCCN(S(=O)(=O)N3CCCCC3)C2)cc1 [B4]")
2.79
>>> measured("CCc1ccc(CNS(=O)(=O)N2CCCN(CC3CCCCC3)CCCN(S(=O)(=O)c3ccc(N(C)C)cc3)C[C@H](C)C2)cc1 [A189]")
0.07
>>> measured("Cc1cccc(CN2CCCN(S(=O)(=O)c3ccc(N(C)C)cc3)C[C@H](C)CN(S(=O)(=O)N3CCc4cc(Cl)ccc4C3)CCC2)c1 [A156]")
82.1
>>> measured("C[C@H]1CN(S(=O)(=O)c2ccc(N(C)C)cc2)CCCN(CC2CCC(F)(F)CC2)CCCN(S(=O)(=O)N2CCc3cc(Cl)ccc3C2)C1 [A185]")
37.8
>>> measured("Cc1cc(F)ccc1N1CCN(S(=O)(=O)N2CCCN(CC3CCCCC3)CCCN(S(=O)(=O)c3ccc(N(C)C)cc3)C[C@H](C)C2)C(C)C1 (stereo in doubt) [A163]")
54.9
>>> measured("C[C@H]1CN(S(=O)(=O)c2ccc(N(C)C)cc2)CCCN(CC2CCCCC2)CCCN(S(=O)(=O)N2CCN(C(=O)OC(C)(C)C)CC2)C1 [A153]")
6.23
>>> measured("C[C@H]1CN(S(=O)(=O)c2ccc(N(C)C)cc2)CCCN(CC2CCCCC2)CCCN(S(=O)(=O)N2CCc3c(C#N)cccc3C2)C1 [A151]")
4.2
>>> measured("C[C@H]1CN(S(=O)(=O)c2ccc3c(ccn3C)c2)CCCN(CC2CCCCC2)CCCN(S(=O)(=O)N2CCc3cc(Cl)ccc3C2)C1 [A188]")
27.8
>>> measured("C[C@H]1CN(S(=O)(=O)Cc2ccccc2)CCCN(CC2CCCCC2)CCCN(S(=O)(=O)N2CCc3cc(Cl)ccc3C2)C1 [A171]")
0.90
>>> measured("C[C@H]1CN(S(=O)(=O)c2ccc(N(C)C)cc2)CCCN(CC(F)(F)F)CCCN(S(=O)(=O)N2CCc3cc(Cl)ccc3C2)C1 [A167]")
9.19
